Origin of the recorded values: ChEMBL document CHEMBL1201862

# Test system: SR
# assay.name: NCI tumour cell line growth inhibition, 48 h
Calls of active or inactive are those of the source. Rule as the data show it: active = GI50 up to about 1.1 µM and inactive = higher.
property.label: GI50

Examples with their reported GI50 follow.
CC(=O)c1ccc2c3c1[C@@H]1O[C@@H]1c1cccc(c1-3)[C@@H]1O[C@H]21: > 100 µM (inactive)
C=CCn1c(=O)c(Br)nn(CCOCP(=O)(OCC)OCC)c1=O: > 100 µM (inactive)
N#CC1=C(c2ccccc2)NNC(c2ccc(Cl)cc2)CC1=O (stereo unspecified): 39.2 µM (inactive)

Form: Entry = COc1ccc(-n2c(N)c(C#N)c(C#N)c2-c2ccccc2)cc1 | System = SR | GI50 = ____ > 100 µM (inactive)

Form: Entry = CC(C)Oc1cccc(N2C(NCc3c[nH]c4ccccc34)=Nc3ccncc3S2(=O)=O)c1 | System = SR | GI50 = ____ 28.8 µM (inactive)

Form: Entry = CN(/N=C/c1cccs1)c1ccc(Cl)cc1[N+](=O)[O-] | System = SR | GI50 = ____ 5.71 µM (inactive)
